Every entry's value here was drawn from paper PMC4180634.

method_description: Single dose pharmacokinetic study after oral and intravenous administration in male rats (serum, HPLC-UV)
Format: in vivo, Sprague-Dawley rats
settings: Sprague-Dawley, rat, serum; intravenous 18 mg kg^−1, male rats

molecule | clearance / mL/min/kg
C=C(c1ccc(OC(C)(C)CO)cc1)C1COC2(OO1)C1CC3CC(C1)CC2C3 (stereo not shown) [97/63] | 148

###

method_description: Single dose pharmacokinetic study after oral and intravenous administration in male rats (serum, HPLC-UV)
Type: in vivo, Sprague-Dawley rats
settings: male, Sprague-Dawley, rat, serum, oral, 72 mg kg^−1, oral 72 mg kg^−1 vs intravenous 18 mg kg^−1, male rats; read-out: % bioavailability (absolute)
Source text: Male Sprague-Dawley (SD) rats weighing 250 ± 25 g for this study were obtained from institutional Laboratory Animal Division, CDRI, Lucknow, prior to study. Rats were given standard pellets for feeding and filtered water was given ad libitum and they were housed in well ventilated cages which were kept at room temperature on a regular 12-h light-dark cycle. […] After intravenous and oral dose administration, rats were also monitored for physiological behavior. […]

molecule | bioavailability
C=C(c1ccc(OC(C)(C)CO)cc1)C1COC2(OO1)C1CC3CC(C1)CC2C3 (stereo not shown) [97/63] | ~16%
